- MEASUREMENT TARGET: Human PDE10A enzyme (Homo sapiens)
- Construct: transfected with the full-length gene; His-tag; made in house; host or cells: Sf9 or COS-7 cells
- Sequence (Q9Y233 267-1055): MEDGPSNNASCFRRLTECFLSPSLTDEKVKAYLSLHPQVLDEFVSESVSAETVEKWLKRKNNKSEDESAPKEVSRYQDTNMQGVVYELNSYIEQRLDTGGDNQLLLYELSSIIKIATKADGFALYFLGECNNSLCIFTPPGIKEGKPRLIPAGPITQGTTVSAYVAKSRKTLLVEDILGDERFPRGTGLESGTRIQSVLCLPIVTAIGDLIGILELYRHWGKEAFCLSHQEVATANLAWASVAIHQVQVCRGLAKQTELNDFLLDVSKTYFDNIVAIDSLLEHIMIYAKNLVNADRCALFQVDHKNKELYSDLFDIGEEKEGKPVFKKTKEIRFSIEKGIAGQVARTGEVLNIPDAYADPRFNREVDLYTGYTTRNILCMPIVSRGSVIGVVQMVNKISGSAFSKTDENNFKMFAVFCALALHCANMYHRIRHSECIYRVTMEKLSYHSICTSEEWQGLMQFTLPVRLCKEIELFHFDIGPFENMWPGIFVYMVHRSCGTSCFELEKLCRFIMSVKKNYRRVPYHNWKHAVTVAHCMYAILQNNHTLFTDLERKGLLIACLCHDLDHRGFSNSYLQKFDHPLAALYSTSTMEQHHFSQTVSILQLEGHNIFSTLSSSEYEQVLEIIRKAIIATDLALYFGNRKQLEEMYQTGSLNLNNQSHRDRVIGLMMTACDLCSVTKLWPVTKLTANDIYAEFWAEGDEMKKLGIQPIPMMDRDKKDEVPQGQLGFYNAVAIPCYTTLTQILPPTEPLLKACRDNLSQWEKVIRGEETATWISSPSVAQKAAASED
- METHOD NOTES: PDE enzyme inhibition, SPA (Scintillation Proximity Assay) with [3H]cGMP
- Format: biochemical
- CONDITION INFO: compound 10 μM, [3H]cGMP substrate, read-out: Percent inhibition (10 μM)
METRIC: inhibition at 10 µM (%)

Ask: Bench note: what inhibition at 10 µM did CCn1c(=O)n(-c2ccc(Oc3nc4ccccc4n3CCO)cc2)c2ncccc21 show?
Reply: 101

Ask: Bench note: what inhibition at 10 µM did CCn1c(=O)n(-c2ccc(Oc3nc4ncccc4n3C)cc2)c2ncccc21 show?
Reply: 99

Ask: Bench note: what inhibition at 10 µM did CCn1c(=O)n(-c2ccc3c(c2)CCN3c2nc3ccccc3n2C)c2ncccc21 show?
Reply: 100
